system: microorganisms (e.g., bacteria, yeasts, fungi); assay: Targeting peptide binding to target microorganisms (Table 3); settings: microorganism the targeting peptide binds; binding in aqueous buffers varied by peptide solubility, preferably 1x PBS
ASSAY READOUT: Target(s)

[[record]]
substance = "1T-15 (DVILRVEAQ; Peptide with targeting and/or antimicrobial activity) [Peptide 1T-15]"
assay_readout = "Target(s)"
result_value = "S. mutans"

[[record]]
substance = "1T-17 (NNAIVYIS; Peptide with targeting and/or antimicrobial activity) [Peptide 1T-17]"
assay_readout = "Target(s)"
result_value = "S. mutans"


* * *

tested on: C. jejuni; assay: Kill or inhibit growth/proliferation; morphology, biofilm and growth disruption (Tables 5, 6); assay type: cell-based, Campylobacter jejuni; parameters: key: A: Peptide aggregates; B: Less hyphal formation; Clumps; Diffuse clumps and small polyps; F: Diffuse growth; H: Thin; I: Growth inhibition; Microcolony formation; Rippled; Small polyps; Thick; W: Halo formation on top, microlonies on bottom; further: test concentration or dose not given here
ASSAY READOUT: Organism, effect

[[record]]
substance = "PF-140: peptide having multiple activities (FHRRVIRASEWALTTRSFSTPLRSAAR; Peptide with targeting and/or antimicrobial activity)"
target_system = "C. jejuni"
assay_readout = "Organism, effect"
result_value = "C. jejuni (D)"

[[record]]
substance = "PF-355: peptide having multiple activities (chain 1 WIAIGLLLYFSLKNQ; chain 2 WIAIGLLLYFSLKNQ; Peptide with targeting and/or antimicrobial activity)"
target_system = "C. jejuni"
assay_readout = "Organism, effect"
result_value = "C. jejuni (D)"


* * *

tested on: P. mirabilis; test: Kill or inhibit growth/proliferation; morphology, biofilm and growth disruption (Tables 5, 6); format: cell-based; set-up: key: A: Peptide aggregates; B: Less hyphal formation; Clumps; Diffuse clumps and small polyps; F: Diffuse growth; H: Thin; I: Growth inhibition; Microcolony formation; Rippled; Small polyps; Thick; W: Halo formation on top, microlonies on bottom; further: test concentration or dose not given here
ASSAY READOUT: Organism, effect

[[record]]
substance = "PF-624 (VFLLDSYCFVKINL; Peptide with targeting and/or antimicrobial activity)"
assay_readout = "Organism, effect"
result_value = "P. mirabilis (C)"

[[record]]
substance = "MIHLTKQNTMEALHFIKQFYDMFFILNFNV [PF-040]"
assay_readout = "Organism, effect"
result_value = "P. mirabilis (C)"

[[record]]
substance = "PF-634: peptide having multiple activities (chain 1 MPKARPVNHNKKKSKITIKSNFTLFYMFNP; chain 2 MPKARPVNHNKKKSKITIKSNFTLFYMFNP; Peptide with targeting and/or antimicrobial activity)"
assay_readout = "Organism, effect"
result_value = "P. mirabilis (C)"

[[record]]
substance = "PF-612: peptide having multiple activities (GTTLKYGLERQLKIDIHPEITIINLNGGADEFAKL; Peptide with targeting and/or antimicrobial activity)"
assay_readout = "Organism, effect"
result_value = "P. mirabilis (C)"


Let us examine a further case.
What measured Organism, effect goes with PF-578: peptide having multiple activities (chain 1 QKANLRIGFTYTSDSNVCNLTFALLGSK; chain 2 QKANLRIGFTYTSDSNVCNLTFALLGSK; Peptide with targeting and/or antimicrobial activity) ?
P. mirabilis (C)

* * *

tested on: microorganisms (e.g., bacteria, yeasts, fungi); assay: Targeting peptide binding to target microorganisms (Table 3); settings: microorganism the targeting peptide binds; binding in aqueous buffers varied by peptide solubility, preferably 1x PBS
ASSAY READOUT: Target(s)

[[record]]
substance = "1T-76 (EMRLSKFFRDFILWRKK; Peptide with targeting and/or antimicrobial activity) [Peptide 1T-76]"
assay_readout = "Target(s)"
result_value = "S. pneumoniae"

[[record]]
substance = "PF-041: peptide having multiple activities (chain 1 ELLVILPGFI; chain 2 ELLVILPGFI; Peptide with targeting and/or antimicrobial activity)"
assay_readout = "Target(s)"
result_value = "MRSA"

[[record]]
substance = "1T-77 (EMRISRIILDFLFLRKK; Peptide with targeting and/or antimicrobial activity) [Peptide 1T-77]"
assay_readout = "Target(s)"
result_value = "S. pneumoniae"


* * *

system: M. luteus; test: Kill or inhibit growth/proliferation; morphology, biofilm and growth disruption (Tables 5, 6); assay type: cell-based, Micrococcus luteus; set-up: key: A: Peptide aggregates; B: Less hyphal formation; Clumps; Diffuse clumps and small polyps; F: Diffuse growth; H: Thin; I: Growth inhibition; Microcolony formation; Rippled; Small polyps; Thick; W: Halo formation on top, microlonies on bottom; further: test concentration or dose not given here
ASSAY READOUT: Organism, effect

Recorded Organism, effect, per entry:
[[record]]
substance = "HCVIGNVVDIANLLKRRAVYRDIADVIKMR [PF-071]"
result_value = "M. luteus (R)"

[[record]]
substance = "LSLATFAKIFMTRSNWSLKRFNRL [PF-278]"
result_value = "M. luteus (R)"

[[record]]
substance = "PF-357: peptide having multiple activities (chain 1 MLTIIIGFIFWTMTLMLGYLIGEREGRKHE; chain 2 MLTIIIGFIFWTMTLMLGYLIGEREGRKHE; Peptide with targeting and/or antimicrobial activity)"
result_value = "M. luteus (C)"

[[record]]
substance = "PF-176: peptide having multiple activities (RLTSNQFLTRITPFVFAQH; Peptide with targeting and/or antimicrobial activity)"
result_value = "M. luteus (C)"

[[record]]
substance = "PF-030: peptide having multiple activities (chain 1 MTCHQAPTTTHQSNMA; chain 2 MTCHQAPTTTHQSNMA; Peptide with targeting and/or antimicrobial activity)"
result_value = "M. luteus (C)"


So what's the measured Organism, effect for this one? PF-003: peptide having multiple activities (chain 1 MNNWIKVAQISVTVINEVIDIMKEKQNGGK; chain 2 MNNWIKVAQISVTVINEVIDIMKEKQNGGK; Peptide with targeting and/or antimicrobial activity)
M. luteus (A)

Param item: PF-076: peptide having multiple activities (LYQYELLSKEEYLKCTLIINQRRNEQK; Peptide with targeting and/or antimicrobial activity)
M. luteus (A)

Thanks! And PF-567: peptide having multiple activities (chain 1 QQRVKAVDASLSQVSTQVSGAVASA; chain 2 QQRVKAVDASLSQVSTQVSGAVASA; Peptide with targeting and/or antimicrobial activity) ?
M. luteus (C)

Check EILNNNQVIKELTMKYKTQFESNLGGWTARARR [PF-580] too.
M. luteus (C)

* * *

test system: C. jejuni; assay: Kill or inhibit growth/proliferation; morphology, biofilm and growth disruption (Tables 5, 6); format: cell-based, Campylobacter jejuni; design: key: A: Peptide aggregates; B: Less hyphal formation; Clumps; Diffuse clumps and small polyps; F: Diffuse growth; H: Thin; I: Growth inhibition; Microcolony formation; Rippled; Small polyps; Thick; W: Halo formation on top, microlonies on bottom; further: test concentration or dose not given here
ASSAY READOUT: Organism, effect

Before answering, review these 5 worked examples.
[[record]]
substance = "PF-469: peptide having multiple activities (chain 1 YKVNYNNIDNHFNTLRH; chain 2 YKVNYNNIDNHFNTLRH; Peptide with targeting and/or antimicrobial activity)"
result_value = "C. jejuni (D)"

[[record]]
substance = "HCVIGNVVDIANLLKRRAVYRDIADVIKMR [PF-071]"
result_value = "C. jejuni (A)"

[[record]]
substance = "PF-584: peptide having multiple activities (SYIKNLSNQKFLIAF; Peptide with targeting and/or antimicrobial activity)"
result_value = "C. jejuni (D)"

[[record]]
substance = "PF-607: peptide having multiple activities (YIESDPRKFDYIFGAIRDH; Peptide with targeting and/or antimicrobial activity)"
result_value = "C. jejuni (R)"

[[record]]
substance = "PF-586: peptide having multiple activities (FFNQANYFFKEF; Peptide with targeting and/or antimicrobial activity)"
result_value = "C. jejuni (D)"


Proceeding to the next substance to report its Organism, effect.
Could you share what Organism, effect was measured for PF-067: peptide having multiple activities (DLIVKVHICFVVKTASGYCYLNKREAQAAI; Peptide with targeting and/or antimicrobial activity) , tested on C. jejuni?
C. jejuni (D)

* * *

system: microorganisms; test: Peptides having multiple activities (targeting/binding, antimicrobial, growth or phenotype altering)
ASSAY READOUT: Activities

Sample answers from the record:
[[record]]
substance = "PF-191: peptide having multiple activities (QFCNFAWLFLASNNAQVSALA; Peptide with targeting and/or antimicrobial activity)"
target_system = "microorganisms"
result_value = "G B"

[[record]]
substance = "SLQSQLGPCLHDQRH [PF-448]"
target_system = "microorganisms"
result_value = "G B M"

[[record]]
substance = "PF-379: peptide having multiple activities (chain 1 VFVVLFIIYLASKLLTKLFPIKK; chain 2 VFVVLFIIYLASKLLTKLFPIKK; Peptide with targeting and/or antimicrobial activity)"
target_system = "microorganisms"
result_value = "G B"

[[record]]
substance = "PF-664: peptide having multiple activities (chain 1 DQLCVEYPARVSTG; chain 2 DQLCVEYPARVSTG; Peptide with targeting and/or antimicrobial activity)"
target_system = "microorganisms"
result_value = "G B"

[[record]]
substance = "PF-601: peptide having multiple activities (YRVTVKALE; Peptide with targeting and/or antimicrobial activity)"
target_system = "microorganisms"
result_value = "G B"


Attention now shifts to the item below.
Recorded Activities for PF-149: peptide having multiple activities (GKVSVLTRVPRSLGGAPANQ; Peptide with targeting and/or antimicrobial activity) , please?
G B
